Experiment: Pharmacokinetic study in rats
Assay type: in vivo, Sprague-Dawley rats
Conditions: rat; male Sprague-Dawley rats, plasma; study dosed iv 2 mg/kg and oral 5 mg/kg, route of this parameter not given
The entries below come with measured clearance values attached.

COMPOUND	clearance
C=C(c1ccc(Nc2ncc(F)c(-c3cc(F)c4nc(C)n(C(C)C)c4c3)n2)nc1)C1CCN(CC)CC1 [Example 33]	12.1 mL/min/kg
CCN1CCC(C(O)c2ccc(Nc3ncc(F)c(-c4cc(F)c5nc(C)n(C(C)C)c5c4)n3)nc2)CC1 (single isomer, unassigned) [Example 40]	72.8 mL/min/kg
CCN1CCC(C(C)c2ccc(Nc3ncc(F)c(-c4cc(F)c5nc(C)n(C(C)C)c5c4)n3)nc2)CC1 (single isomer, unassigned) [Example 17]	14.1 mL/min/kg
CCN1CCC(=Cc2ccc(Nc3ncc(F)c(-c4cc(F)c5nc(C)n(C(C)C)c5c4)n3)nc2)CC1 [Example 57]	14.8 mL/min/kg

----------
Target: CDK9/cyclinTl (Homo sapiens, UniProt P50750)
Sequence (P50750 whole entry): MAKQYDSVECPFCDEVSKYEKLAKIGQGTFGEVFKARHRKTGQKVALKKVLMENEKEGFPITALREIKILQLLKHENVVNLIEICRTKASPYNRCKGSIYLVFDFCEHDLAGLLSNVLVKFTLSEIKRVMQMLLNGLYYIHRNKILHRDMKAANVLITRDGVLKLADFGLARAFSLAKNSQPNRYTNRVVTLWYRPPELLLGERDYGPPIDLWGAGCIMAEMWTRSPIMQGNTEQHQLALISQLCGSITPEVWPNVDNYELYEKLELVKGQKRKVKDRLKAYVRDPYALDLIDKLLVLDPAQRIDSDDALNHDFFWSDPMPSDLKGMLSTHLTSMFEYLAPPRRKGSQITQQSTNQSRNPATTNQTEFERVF
Sequence (O60563 whole entry partner): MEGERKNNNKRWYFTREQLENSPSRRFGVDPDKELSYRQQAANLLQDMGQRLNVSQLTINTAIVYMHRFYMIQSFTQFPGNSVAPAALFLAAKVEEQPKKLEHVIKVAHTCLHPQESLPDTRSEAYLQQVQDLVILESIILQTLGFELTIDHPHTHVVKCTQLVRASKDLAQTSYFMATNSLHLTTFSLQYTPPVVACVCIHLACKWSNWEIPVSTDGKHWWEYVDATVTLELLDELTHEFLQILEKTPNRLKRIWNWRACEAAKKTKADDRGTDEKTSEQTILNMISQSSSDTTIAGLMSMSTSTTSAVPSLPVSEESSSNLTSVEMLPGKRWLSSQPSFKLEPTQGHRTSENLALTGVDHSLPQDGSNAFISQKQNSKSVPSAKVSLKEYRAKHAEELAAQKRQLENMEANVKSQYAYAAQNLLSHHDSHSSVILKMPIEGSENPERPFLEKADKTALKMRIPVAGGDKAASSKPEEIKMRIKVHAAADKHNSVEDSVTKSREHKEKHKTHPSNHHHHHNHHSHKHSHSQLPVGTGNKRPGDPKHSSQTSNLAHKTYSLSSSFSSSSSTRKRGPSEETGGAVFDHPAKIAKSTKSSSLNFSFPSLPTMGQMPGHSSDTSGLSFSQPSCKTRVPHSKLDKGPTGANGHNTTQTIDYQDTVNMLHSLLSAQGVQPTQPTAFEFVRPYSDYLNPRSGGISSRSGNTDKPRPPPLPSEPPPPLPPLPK
Assay: Determination of CDK activity (Caliper mobility shift, FAM-P8 peptide): CDK9
Type: biochemical
Details: CDK9 enzymatic inhibitory activity (IC50), CDK9/cyclinTl
Method: In vitro, CDK (CDK4, CDK6, CDK1, CDK2, CDK7, and CDK9) kinase activity was tested by the following method. 1. Prepared 1× Kinase Buffer and Stop Buffer for the Test 3) 1× Kinase Base Buffer (CDK7 and 9). 1) Diluted the compound to 50 times of the maximum concentration with 100% DMSO. For example, if the desired maximum inhibitory concentration is 10 μM, then a DMSO solution of 500 μM concentration is required. […] 5. Caliper Reading: Collect Data on Caliper. […]
The entries below come with measured IC50 values attached.

INPUT SMILES	IC50
CC[C@H](c1ccc(Nc2ncc(F)c(-c3cc(F)c4nc(C)n(C(C)C)c4c3)n2)nc1)N1CCN(C)CC1	10 to 100 µM
CC[C@@H](c1ccc(Nc2ncc(F)c(-c3cc(F)c4nc(C)n(C(C)C)c4c3)n2)nc1)N1CCN(C)CC1	1 to 10 µM

----------
Biological target: CDK9/cyclinTl (Homo sapiens)
Test: Determination of CDK activity (Caliper mobility shift, FAM-P8 peptide): CDK9
Assay type: biochemical
Settings: CDK9/cyclinTl; read-out: CDK9 enzymatic inhibitory activity (IC50)
pIC50: −log10 of the molar value.
The entries below come with measured pIC50 values attached.

COMPOUND	TEST TARGET	pIC50
CCN1CCC(C(O)c2ccc(Nc3ncc(F)c(-c4cc(F)c5nc(C)n(C(C)C)c5c4)n3)nc2)CC1 (racemic) [Example 39]	CDK9/cyclinTl (Homo sapiens)	> 7.00
CCC(c1ccc(Nc2ncc(F)c(-c3cc(F)c4nc(C)n(C(C)C)c4c3)n2)nc1)N1CCN(CC)CC1 (single isomer, unassigned) [Example 2]	CDK9/cyclinTl (Homo sapiens)	5.00 to 6.00
Cc1nc2c(F)cc(-c3nc(Nc4ccc(C=C5CCN(CC(F)(F)F)CC5)cn4)ncc3F)cc2n1C(C)C	CDK9/cyclinTl (Homo sapiens)	6.30 to 7.00
Cc1nc2c(F)cc(-c3nc(Nc4ccc([C@H](C)C5CCN(CC(F)(F)F)CC5)cn4)ncc3F)cc2n1C(C)C	CDK9/cyclinTl (Homo sapiens)	6.30 to 7.00
CC[C@@H](c1ccc(Nc2ncc(F)c(-c3cc(F)c4nc(C)n(C(C)C)c4c3)n2)nc1)N1CCNCC1	CDK9/cyclinTl (Homo sapiens)	5.00 to 6.00
CC[C@@H](c1ccc(Nc2ncc(F)c(-c3cc(F)c4nc(C)n(C(C)C)c4c3)n2)nc1)C1CCN(CC)CC1	CDK9/cyclinTl (Homo sapiens)	6.00 to 6.30
Cc1nc2c(F)cc(-c3nc(Nc4ccc([C@@H](O)C5CCNCC5)cn4)ncc3F)cc2n1C(C)C	CDK9/cyclinTl (Homo sapiens)	6.00 to 6.30
C=C(c1ccc(Nc2ncc(F)c(-c3cc(F)c4nc(C)n(C(C)C)c4c3)n2)nc1)N1CCN(CC)CC1	CDK9/cyclinTl (Homo sapiens)	6.00 to 6.30
COCCN1CCC([C@H](C)c2ccc(Nc3ncc(F)c(-c4cc(F)c5nc(C)n(C(C)C)c5c4)n3)nc2)CC1 (single isomer, unassigned)	CDK9/cyclinTl (Homo sapiens)	6.30 to 7.00
Cc1nc2c(F)cc(-c3nc(Nc4ccc(C=C5CCN(CC(F)F)CC5)cn4)ncc3F)cc2n1C(C)C	CDK9/cyclinTl (Homo sapiens)	6.30 to 7.00
Cc1nc2c(F)cc(-c3nc(Nc4ccc([C@@H](C)C5CCN(C(C)C)CC5)cn4)ncc3F)cc2n1C(C)C (single isomer, unassigned)	CDK9/cyclinTl (Homo sapiens)	6.30 to 7.00
CC(=C1CCN(C)CC1)c1ccc(Nc2ncc(F)c(-c3cc(F)c4nc(C)n(C(C)C)c4c3)n2)nc1	CDK9/cyclinTl (Homo sapiens)	6.00 to 6.30
Cc1nc2c(F)cc(-c3nc(Nc4ccc(C=C5CCN(C)CC5)cn4)ncc3F)cc2n1C(C)C	CDK9/cyclinTl (Homo sapiens)	6.30 to 7.00
CC(=C1CCNCC1)c1ccc(Nc2ncc(F)c(-c3cc(F)c4nc(C)n(C(C)C)c4c3)n2)nc1	CDK9/cyclinTl (Homo sapiens)	6.30 to 7.00
